- Test system: Entero faecalis 02D2UC5
- Protocol Description: Method of dilutions in liquid medium (MIC)
- Assay type: cell-based
- Run Parameters: 24 hours at 37° C.
Quick reference: Activity in vitro MIC of the listed items.
Endpoint Name: Activity in vitro MIC (µg/mL)

# Chemical Smiles, Test Result
data = [
    ("C#CCONC(=O)O[C@H]1[C@@H](O)[C@H](Oc2ccc3c(O)c(C(C)=NOCC)c(=O)oc3c2C)OC(C)(C)[C@@H]1OC", 1.2),
    ("C#CCONC(=O)O[C@H]1[C@@H](O)[C@H](Oc2ccc3c(O)c(C(C)=NOC)c(=O)oc3c2C)OC(C)(C)[C@@H]1OC", 1.2),
    ("C#CCONC(=O)O[C@H]1[C@@H](O)[C@H](Oc2ccc3c(O)c(C(=O)NCCN4CCOCC4)c(=O)oc3c2C)OC(C)(C)[C@@H]1OC", 1.2),
    ("C#CCONC(=O)O[C@H]1[C@@H](O)[C@H](Oc2ccc3c(O)c(C(N)=O)c(=O)oc3c2C)OC(C)(C)[C@@H]1OC", 0.3),
]

---

- Tested on: Entero faecium 02D3IP2
- Protocol Description: Method of dilutions in liquid medium (MIC)
- Type: cell-based
- Run Parameters: 24 hours at 37° C.

# Compound, Unit Tag, Activity in vitro MIC
records = [
    ("C#CCONC(=O)O[C@H]1[C@@H](O)[C@H](Oc2ccc3c(O)c(C(C)=NOC)c(=O)oc3c2C)OC(C)(C)[C@@H]1OC [Ex. 3]", "µg/mL", 1.2),
    ("C#CCONC(=O)O[C@H]1[C@@H](O)[C@H](Oc2ccc3c(O)c(C(C)=NOCC)c(=O)oc3c2C)OC(C)(C)[C@@H]1OC [Ex. 4]", "µg/mL", 1.2),
    ("C#CCONC(=O)O[C@H]1[C@@H](O)[C@H](Oc2ccc3c(O)c(C(N)=O)c(=O)oc3c2C)OC(C)(C)[C@@H]1OC [Ex. 1]", "µg/mL", 0.08),
    ("C#CCONC(=O)O[C@H]1[C@@H](O)[C@H](Oc2ccc3c(O)c(C(=O)NCCN4CCOCC4)c(=O)oc3c2C)OC(C)(C)[C@@H]1OC [Ex. 2]", "µg/mL", 0.6),
]

---

- Test system: Staph. epidermidis 0126042
- Protocol Description: Method of dilutions in liquid medium (MIC)
- Assay type: cell-based
- Run Parameters: 24 hours at 37° C.
Quick reference: Activity in vitro MIC of the listed items.
Endpoint Name: Activity in vitro MIC (µg/mL)

# Chemical Smiles, Target Desc, Endpoint Name, Test Result
rows = [
    ("C#CCONC(=O)O[C@H]1[C@@H](O)[C@H](Oc2ccc3c(O)c(C(C)=NOC)c(=O)oc3c2C)OC(C)(C)[C@@H]1OC", "Staph. epidermidis 0126042", "Activity in vitro MIC", 0.04),
    ("C#CCONC(=O)O[C@H]1[C@@H](O)[C@H](Oc2ccc3c(O)c(C(N)=O)c(=O)oc3c2C)OC(C)(C)[C@@H]1OC", "Staph. epidermidis 0126042", "Activity in vitro MIC", 0.04),
    ("C#CCONC(=O)O[C@H]1[C@@H](O)[C@H](Oc2ccc3c(O)c(C(=O)NCCN4CCOCC4)c(=O)oc3c2C)OC(C)(C)[C@@H]1OC", "Staph. epidermidis 0126042", "Activity in vitro MIC", 0.04),
    ("C#CCONC(=O)O[C@H]1[C@@H](O)[C@H](Oc2ccc3c(O)c(C(C)=NOCC)c(=O)oc3c2C)OC(C)(C)[C@@H]1OC", "Staph. epidermidis 0126042", "Activity in vitro MIC", 0.15),
]
